All values here come from ChEMBL document CHEMBL4229569.

- ASSAY_SYSTEM: Cytochrome P450 3A4 (Homo sapiens)
- Sequence (P08684 whole entry): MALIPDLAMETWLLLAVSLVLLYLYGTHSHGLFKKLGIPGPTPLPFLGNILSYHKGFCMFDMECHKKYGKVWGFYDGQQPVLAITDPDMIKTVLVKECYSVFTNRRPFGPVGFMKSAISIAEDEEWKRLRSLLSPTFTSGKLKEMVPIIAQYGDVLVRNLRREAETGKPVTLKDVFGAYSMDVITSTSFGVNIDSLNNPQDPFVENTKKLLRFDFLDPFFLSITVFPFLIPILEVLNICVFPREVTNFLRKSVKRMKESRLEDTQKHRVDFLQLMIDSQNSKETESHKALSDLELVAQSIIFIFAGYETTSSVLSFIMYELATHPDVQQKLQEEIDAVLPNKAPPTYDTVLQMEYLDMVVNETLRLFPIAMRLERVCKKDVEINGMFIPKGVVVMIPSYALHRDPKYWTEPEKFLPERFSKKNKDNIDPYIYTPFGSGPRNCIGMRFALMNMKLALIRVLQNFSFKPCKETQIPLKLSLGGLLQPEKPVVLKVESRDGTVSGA
- EXPERIMENTAL_DETAILS: Inhibition of CYP3A4 (unknown origin) using testosterone as substrate
- Format: ADME
Recorded measurements of IC50, one per entry

Look over these answered cases.
Cc1nnc(C(C)C)n1[C@@H]1C[C@H]2CC[C@@H](C1)N2CC[C@H](NC(=O)C1CCC(F)(F)CC1)c1cccs1 ... > 25 µM
Cc1nnc(C(C)C)n1[C@@H]1C[C@H]2CC[C@@H](C1)N2CC[C@H](NC(=O)C1CCCC1)c1cccs1 ... > 25 µM

Continue with the compound presented below.
Request: May I ask what IC50 has been recorded for Cc1nnc(C(C)C)n1[C@@H]1C[C@H]2CC[C@@H](C1)N2CC[C@H](NC(=O)C1CCC(F)(F)CC1)c1ccsc1 ?
Result: > 25 µM

----------
- ASSAY_SYSTEM: Cytochrome P450 3A4 (Homo sapiens)
- EXPERIMENTAL_DETAILS: Inhibition of CYP3A4 (unknown origin) using midazolam as substrate
- Format: ADME
pIC50: −log10 of the molar value.
PARAMETER_MEASURED: pIC50

Cc1nnc(C(C)C)n1[C@@H]1C[C@H]2CC[C@@H](C1)N2CC[C@H](NC(=O)C1CCC(F)(F)CC1)c1ccsc1 ... < 4.60

Request: Form field: reported pIC50 of Cc1nnc(C(C)C)n1[C@@H]1C[C@H]2CC[C@@H](C1)N2CC[C@H](NC(=O)C1CCCC1)c1cccs1
Result: < 4.60

Request: Also, Cc1nnc(C(C)C)n1[C@@H]1C[C@H]2CC[C@@H](C1)N2CC[C@H](NC(=O)C1CCC(F)(F)CC1)c1cccs1 please.
Result: < 4.60

----------
pIC50 values recorded for Cytochrome P450 2D6 (Homo sapiens, UniProt P10635)
pIC50: −log10 of the molar value.

Example entries and their recorded answers appear below.
Cc1nnc(C(C)C)n1[C@@H]1C[C@H]2CC[C@@H](C1)N2CC[C@H](NC(=O)C1CCC(F)(F)CC1)c1ccsc1 ... < 4.60
Cc1nnc(C(C)C)n1[C@@H]1C[C@H]2CC[C@@H](C1)N2CC[C@H](NC(=O)C1CCC(F)(F)CC1)c1cccs1 ... < 4.60

We next turn to a different molecule, shown below.
Request: Given the molecule Cc1ccc([C@H](CCN2[C@@H]3CC[C@H]2C[C@H](n2c(C)nnc2C(C)C)C3)NC(=O)C2CCC(F)(F)CC2)s1 , what is its reported pIC50?
Result: < 4.60
